Where do the numbers come from? From patent US8546452B2.

# Target entity: hS1P1 (Homo sapiens)
# Construct: expressed in transfected cells
# Sequence (P21453 whole entry): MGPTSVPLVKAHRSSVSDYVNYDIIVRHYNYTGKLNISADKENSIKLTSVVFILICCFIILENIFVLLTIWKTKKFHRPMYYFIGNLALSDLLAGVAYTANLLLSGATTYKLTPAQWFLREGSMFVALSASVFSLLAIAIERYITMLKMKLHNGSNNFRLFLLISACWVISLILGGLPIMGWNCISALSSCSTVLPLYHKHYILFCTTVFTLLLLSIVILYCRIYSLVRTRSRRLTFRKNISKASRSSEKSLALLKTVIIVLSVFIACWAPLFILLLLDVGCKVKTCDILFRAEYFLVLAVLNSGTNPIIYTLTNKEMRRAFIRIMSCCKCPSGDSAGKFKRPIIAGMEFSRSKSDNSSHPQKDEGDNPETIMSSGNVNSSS
# Assay protocol: S1P receptor subtype selectivity, S1P-induced [Ca2+]i increase in CHO-K1 cells stably expressing S1P1 (Calcium3)
# Assay type: cell-based
# Study conditions: CHO-K1, read-out: Suppression rate at 10 μM (%) hS1P1
Attribute measured: inhibition at 10 µM (%)

1) Cc1ccc(NN=C(Nc2ccc(C)cc2)C(=O)C(C)(C)C)cc1 : -9.1
2) C#Cc1ccc(NN=C(Nc2ccc(C#C)cc2)C(=O)C(C)(C)C)cc1 : 14.1
3) CC(C)(C)C(=O)C(=NNc1ccccc1)Nc1ccc(Cl)cc1 : 25.1
4) C#Cc1ccc(NC(=NNc2ccc(Cl)cc2)C(=O)CCCC)cc1 : -16.6
5) CC(C)(C)NC(=O)C(=NNc1ccc(Cl)cc1)Nc1cccc(F)c1 : 14.6

---

# Target entity: hS1P1 (Homo sapiens)
# Construct: expressed in transfected cells
# Assay protocol: S1P receptor subtype selectivity, S1P-induced [Ca2+]i increase in CHO-K1 cells stably expressing S1P1 (Calcium3)
# Type: cell-based
# Study conditions: CHO-K1, read-out: Suppression rate at 10 μM (%) hS1P1
Examples of compounds with documented inhibition at 10 µM follow.
Attribute measured: inhibition at 10 µM (%)

1. CCC(CC)C(=O)C(=NNc1ccc(Cl)cc1)Nc1cccc(Cl)c1 : 35.3
2. C#Cc1ccc(NC(=NNc2ccc(Cl)cc2)C(=O)c2ccco2)cc1 : 20.4
3. Cc1ccc(NN=C(Nc2cc(Cl)cc(Cl)c2)C(=O)C(C)(C)C)cc1 : -1
4. CC(C)(C)CC(=O)C(=NNc1ccc(Cl)cc1)Nc1ccc(Cl)cc1 : 14.9
5. CC(C)(C)CC(=O)C(=NNc1ccc(Cl)cc1)Nc1cccc(Cl)c1 : 18.3
6. CC(C)(C)C(=O)C(=NNc1ccc(Br)cc1)Nc1ccc(Cl)cc1 : 17
7. CC(C)(C)C(=O)C(=NNc1cccc(Cl)c1)Nc1ccc(Cl)cc1 : 7.9
8. C#Cc1ccc(NN=C(Nc2cccc(Cl)c2)C(=O)C(C)(C)C)cc1 : 11.1
9. CC(C)(C)NC(=O)C(=NNc1ccc(Cl)cc1)Nc1ccc(Cl)cc1 : 29.7
10. C#Cc1ccc(NC(=NNc2ccc(Br)cc2)C(=O)C(C)(C)C)cc1 : 25.1
11. Cc1ccc(NN=C(Nc2ccc(Cl)cc2)C(=O)C(C)(C)C)cc1 : -9.7
12. CCCCC(=O)C(=NNc1ccc(Cl)cc1)Nc1ccc(Cl)cc1 : 24.3
13. C#Cc1ccc(NC(=NNc2ccc(Cl)cc2)C(=O)C(C)(C)CCl)cc1 : 4.9
14. CC(C)(C)C(=O)C(=NNc1ccc(Cl)cc1)Nc1cccc(Cl)c1 : 16.7
15. C#Cc1ccc(NC(=NNc2ccc(Cl)cc2)C(=O)C(C)(C)C)cc1 : 40.3
16. CCOC(=O)C(=NNc1ccc(Cl)cc1)Nc1cccc(C#N)c1 : -3.5

---

# Target entity: hS1P2 (Homo sapiens, UniProt O95136)
# Construct: expressed in transfected cells
# Sequence (O95136 whole entry): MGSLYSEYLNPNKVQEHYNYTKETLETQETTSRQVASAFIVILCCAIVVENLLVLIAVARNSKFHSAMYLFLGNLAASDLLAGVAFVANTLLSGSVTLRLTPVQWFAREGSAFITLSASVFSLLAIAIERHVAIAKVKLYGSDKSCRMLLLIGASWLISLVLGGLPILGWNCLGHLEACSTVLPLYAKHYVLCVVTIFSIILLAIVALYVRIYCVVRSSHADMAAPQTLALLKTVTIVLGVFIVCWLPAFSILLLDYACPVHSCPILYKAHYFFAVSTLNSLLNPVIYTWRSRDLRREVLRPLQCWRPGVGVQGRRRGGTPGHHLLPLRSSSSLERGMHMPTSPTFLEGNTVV
# Assay protocol: S1P receptor subtype selectivity, S1P-induced [Ca2+]i increase in CHO-K1 cells stably expressing S1P2 (Calcium3)
# Type: cell-based
# Study conditions: CHO-K1, read-out: Suppression rate at 10 μM (%) hS1P2
Attribute measured: inhibition at 10 µM (%)

1) C#Cc1ccc(NC(=NNc2ccc(Cl)cc2)C(=O)C(C)(C)C)cc1 : 33.7
2) C#Cc1ccc(NC(=NNc2ccc(Cl)cc2)C(=O)CCCC)cc1 : 23.1
3) CC(C)(C)C(=O)C(=NNc1ccccc1)Nc1ccc(Cl)cc1 : 13.6
4) C#Cc1ccc(NC(=NNc2ccc(Cl)cc2)C(=O)c2ccco2)cc1 : 31.6
5) CC(C)(C)CC(=O)C(=NNc1ccc(Cl)cc1)Nc1ccc(Cl)cc1 : 40.6
6) CC(C)(C)CC(=O)C(=NNc1ccc(Cl)cc1)Nc1cccc(Cl)c1 : 26.2
7) Cc1ccc(NN=C(Nc2cc(Cl)cc(Cl)c2)C(=O)C(C)(C)C)cc1 : 9.1
8) CC(C)(C)C(=O)C(=NNc1ccc(Br)cc1)Nc1ccc(Cl)cc1 : 17.9
9) Cc1ccc(NN=C(Nc2ccc(C)cc2)C(=O)C(C)(C)C)cc1 : -1.4
10) CC(C)(C)C(=O)C(=NNc1cccc(Cl)c1)Nc1ccc(Cl)cc1 : 32.9
11) CC(C)(C)C(=O)C(=NNc1ccc(Cl)cc1)Nc1cccc(Cl)c1 : 37.7
12) C#Cc1ccc(NC(=NNc2ccc(Cl)cc2)C(=O)C(C)(C)CCl)cc1 : 7.1
13) CCOC(=O)C(=NNc1ccc(Cl)cc1)Nc1cccc(C#N)c1 : -4.6
14) C#Cc1ccc(NC(=NNc2ccc(Br)cc2)C(=O)C(C)(C)C)cc1 : 20.8
15) C#Cc1ccc(NN=C(Nc2cccc(Cl)c2)C(=O)C(C)(C)C)cc1 : 15.8
16) C#Cc1ccc(NN=C(Nc2ccc(C#C)cc2)C(=O)C(C)(C)C)cc1 : 8
17) CC(C)(C)NC(=O)C(=NNc1ccc(Cl)cc1)Nc1ccc(Cl)cc1 : 17.4
18) Cc1ccc(NN=C(Nc2ccc(Cl)cc2)C(=O)C(C)(C)C)cc1 : 7.4
19) CCCCC(=O)C(=NNc1ccc(Cl)cc1)Nc1ccc(Cl)cc1 : 27
20) CC(C)(C)NC(=O)C(=NNc1ccc(Cl)cc1)Nc1cccc(F)c1 : 14.2
21) CCC(CC)C(=O)C(=NNc1ccc(Cl)cc1)Nc1cccc(Cl)c1 : 30.1

---

# Target entity: UniProt Q99500
# Assay protocol: S1P receptor subtype selectivity, S1P-induced [Ca2+]i increase in CHO-K1 cells stably expressing S1P3 (Calcium3)
# Assay type: cell-based
# Study conditions: CHO-K1, read-out: Suppression rate at 10 μM (%) hS1P3
Examples of compounds with documented inhibition at 10 µM follow.
Attribute measured: inhibition at 10 µM (%)

1. C#Cc1ccc(NC(=NNc2ccc(Cl)cc2)C(=O)C(C)(C)C)cc1 : 94.3
2. C#Cc1ccc(NC(=NNc2ccc(Cl)cc2)C(=O)C(C)(C)CCl)cc1 : 89.9
3. C#Cc1ccc(NN=C(Nc2ccc(C#C)cc2)C(=O)C(C)(C)C)cc1 : 79.9
4. C#Cc1ccc(NC(=NNc2ccc(Br)cc2)C(=O)C(C)(C)C)cc1 : 105
5. C#Cc1ccc(NC(=NNc2ccc(Cl)cc2)C(=O)CCCC)cc1 : 95.1

---

# Target entity: hS1P3 (Homo sapiens, UniProt Q99500)
# Sequence (Q99500 whole entry): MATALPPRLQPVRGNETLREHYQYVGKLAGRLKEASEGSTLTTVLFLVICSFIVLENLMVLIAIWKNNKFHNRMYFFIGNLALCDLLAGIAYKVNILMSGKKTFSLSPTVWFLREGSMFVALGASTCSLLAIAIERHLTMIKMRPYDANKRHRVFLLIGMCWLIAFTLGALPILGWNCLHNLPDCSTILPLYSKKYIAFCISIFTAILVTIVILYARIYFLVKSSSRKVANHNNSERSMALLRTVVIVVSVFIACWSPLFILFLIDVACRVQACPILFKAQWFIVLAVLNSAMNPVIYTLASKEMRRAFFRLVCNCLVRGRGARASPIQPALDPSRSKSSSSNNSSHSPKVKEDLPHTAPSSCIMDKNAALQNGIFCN
# Assay protocol: Suppressive effect on S1P-induced increase in [Ca2+]i, CHO-K1 cells expressing S1P3 (Fura 2-AM), IC50
# Study conditions: S1P solution 50 nmol/L, read-out: hS1P3 suppression IC50
Attribute measured: IC50 (nM)

1. CC(C)(C)C(=O)C(=NNc1ccc(S(C)(=O)=O)cc1)Nc1ccc(Cl)cc1 : 10600
2. C#Cc1ccc(NN=C(Nc2cccc(Cl)c2)C(=O)C(C)(C)C)cc1 : 840
3. C#Cc1ccc(NC(=NNc2ccc(Cl)cc2)C(=O)C(C)(C)CCl)cc1 : 3860
4. O=C(C(=NNc1ccc(Cl)cc1)Nc1ccc(F)cc1)c1ccccc1 : 4570
5. CCOC(=O)C(=NNc1ccc(Cl)cc1)Nc1cccc(F)c1 : 3120
6. CC(C)(C)C(=O)C(=NNc1ccc(Cl)cc1)Nc1cc(F)cc(F)c1 : 1220
7. C#Cc1ccc(NC(=NNc2ccc(Cl)c(Cl)c2)C(=O)C(C)(C)C)cc1 : 820
8. CC(C)(C)CC(=O)C(=NNc1ccc(Cl)cc1)Nc1cccc(Cl)c1 : 1990
9. O=C(C(=NNc1ccc(Cl)cc1)Nc1ccc(Cl)cc1)c1ccco1 : 2070
10. O=C(C(=NNc1ccc(Cl)cc1)Nc1ccc(Cl)cc1)N1CCCCC1 : 14500
11. CC(C)(C)C(=O)C(=NNc1cccc(Cl)c1)Nc1cccc(F)c1 : 3540
12. C#Cc1ccc(NN=C(Nc2ccc(Cl)cc2)C(=O)C(C)(C)C)cc1 : 660
13. CC(C)(C)C(=O)C(=NNc1ccc(C#N)cc1)Nc1cccc(F)c1 : 5520
14. CCOC(=O)C(=NNc1ccc(Cl)cc1)Nc1cc(F)cc(F)c1 : 1920
15. CC(=O)c1ccc(NN=C(Nc2cccc(F)c2)C(=O)C(C)(C)C)cc1 : 8900
16. CC(C)(C)C(=O)C(=NNc1ccc(Cl)cc1)Nc1ccc(Cl)c(F)c1 : 900
17. C#Cc1ccc(NC(=NNc2ccc(Cl)cc2)C(=O)C(C)(C)C)cc1 : 990
18. O=C(C(=NNc1ccc(Cl)cc1)Nc1ccc(Br)cc1)c1ccco1 : 4230
19. CC(C)(C)C(=O)C(=NNc1ccccc1)Nc1ccc(Cl)cc1 : 3740
20. CC(C)(C)C(=O)C(=NNc1ccc(Cl)cc1)Nc1ccc(Cl)c(Cl)c1 : 310
21. CC(C)(C)C(=O)C(=NNc1ccc(Br)cc1)Nc1ccc(Cl)c(F)c1 : 520
22. CC(C)(C)C(=O)C(=NNc1ccc(Cl)cc1)Nc1cccc(C(F)(F)F)c1 : 2530
23. CC(C)(C)NC(=O)C(=NNc1ccc(Cl)cc1)Nc1cc(Cl)cc(Cl)c1 : 12300
24. CC(C)(C)C(=O)C(=NNc1ccc(Cl)cc1)Nc1cccc(Cl)c1 : 840
25. CC(C)(C)C(=O)C(=NNc1ccc(C(F)(F)F)cc1)Nc1ccc(Cl)cc1 : 9090
26. COc1ccc(NC(=NNc2ccc(F)cc2)C(=O)C(C)(C)C)cc1 : 4950
27. CC(C)(C)C(=O)C(=NNc1ccc(F)cc1)Nc1cccc(F)c1 : 4470
28. C#Cc1ccc(NN=C(Nc2cccc(F)c2)C(=O)C(C)(C)C)cc1 : 750
29. CCOC(=O)C(=NNc1ccc(Cl)cc1)Nc1cccc(C#N)c1 : 2180
30. CC(C)(C)C(=O)C(=NNc1ccc(F)cc1)Nc1cc(Cl)cc(Cl)c1 : 1390
31. CC(C)(C)C(=O)C(=NNc1ccc(C(F)(F)F)cc1)Nc1ccc(Cl)c(Cl)c1 : 3640
32. CC(C)(C)CC(=O)C(=NNc1ccc(Cl)cc1)Nc1cccc(F)c1 : 1780
33. CC(C)(C)C(=O)C(=NNc1ccc(Br)cc1)Nc1ccc(Br)cc1 : 1660
34. CC(C)(C)C(=O)C(=NNc1ccc(C#N)cc1)Nc1ccc(F)cc1 : 5070
35. CC(C)(C)C(=O)C(=NNc1ccc(Br)cc1)Nc1ccc(C#N)cc1 : 1510
36. CCCCC(=O)C(=NNc1ccc(Cl)cc1)Nc1ccc(Cl)cc1 : 2470
